Give PBM binding z-score for every item shown.
System: PPARg:RXRa 30nM:10nM, anti-RXR (NR concentration 30 nM, RXRa partner concentration 10 nM)
measurementDescription: PBM binding z-score (relative to random genomic background probes); higher = stronger binding; sequences stand for … in GC…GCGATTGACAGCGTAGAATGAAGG

Batch lookup, PBM binding z-score per entry.
1. GATAGAGGGTCAAGGCCAGAGTACGCGTATTGAT
2. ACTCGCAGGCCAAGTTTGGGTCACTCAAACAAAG
3. GCTAGCAGGCCATTTGGGTCACCCAATGACGGGC
4. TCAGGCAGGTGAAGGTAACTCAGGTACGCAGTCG

OUT:
1. 1.61
2. -0.845
3. -0.28
4. 2.13

Dear reader, for each entry below, please note its PBM binding z-score.
1. GATACAGGGTTAAGGCCAGAGTACGCGTATTGAT
2. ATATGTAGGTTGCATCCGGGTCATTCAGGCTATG
3. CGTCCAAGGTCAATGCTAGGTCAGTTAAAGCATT
4. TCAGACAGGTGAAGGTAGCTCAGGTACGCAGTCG

OUT:
1: 0.167; 2: 0.362; 3: 1.26; 4: 3.33

State the recorded PBM binding z-score for every item in the following list.
1. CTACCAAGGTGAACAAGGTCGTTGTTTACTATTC
2. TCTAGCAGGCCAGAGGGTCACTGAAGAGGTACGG
3. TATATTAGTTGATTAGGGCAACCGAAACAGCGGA
4. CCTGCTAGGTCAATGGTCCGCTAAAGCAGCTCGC

OUT:
1: -0.0619; 2: 1.92; 3: 1.02; 4: 0.46

###

Tested on: PPARg:RXRa (NR concentration 180 nM, RXRa partner concentration 90 nM)
measurementDescription: PBM binding z-score (relative to random genomic background probes); higher = stronger binding; sequences stand for … in GC…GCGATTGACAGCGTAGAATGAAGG
PBM binding z-score vs 1: at or above is 1, below is 0.

sequenceEntry: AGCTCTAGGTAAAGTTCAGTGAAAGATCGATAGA
group: 1
//
sequenceEntry: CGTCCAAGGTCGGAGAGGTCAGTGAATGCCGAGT
group: 0

IN: Entry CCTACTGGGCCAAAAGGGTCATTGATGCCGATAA : is its PBM binding z-score no less than 1?
OUT: 1

IN: Record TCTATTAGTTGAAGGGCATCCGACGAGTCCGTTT ; criterion: PBM binding z-score no lower than 1. Met?
OUT: 0

IN: Could you verify whether the entry CCTAGTTGGTCAAGGTCAGACACGCTATAGGTAC shows PBM binding z-score of no less than 1?
OUT: 1

IN: Please tell me: is the sequence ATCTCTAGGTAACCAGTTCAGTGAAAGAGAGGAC at or over 1 in terms of PBM binding z-score?
OUT: 1

IN: Check if PBM binding z-score >= 1 (inclusive). Item: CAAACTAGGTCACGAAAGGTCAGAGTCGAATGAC
OUT: 1

IN: API: above_or_equal(metric=PBM binding z-score, cutoff=1) for item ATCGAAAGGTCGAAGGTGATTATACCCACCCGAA
OUT: 1

IN: API: above_or_equal(metric=PBM binding z-score, cutoff=1) for item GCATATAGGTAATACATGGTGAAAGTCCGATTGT
OUT: 0

IN: Answer whether PBM binding z-score of TCTGCTAGGTCAACGATGGTGAGCTAATCTGCTA is greater than or equal to 1.
OUT: 1

IN: Does PBM binding z-score meet or surpass 1 for TAGTCTAGGTCATTGGGCCAGTATAGTACGCATC ?
OUT: 1

IN: Please tell me: is the sequence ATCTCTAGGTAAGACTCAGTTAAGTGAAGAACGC at or over 1 in terms of PBM binding z-score?
OUT: 0

The values you see were collected from the supplement of paper PMC6555819.
